Values from ChEMBL document CHEMBL1143799

tested on: MDA-MB-231; experiment: Growth inhibition of MDA-MB-231 cells after 48 hrs by SRB protein assay; format: functional; conditions: Homo sapiens, MDA-MB-231, 48 h
Test readout: GI50 (µM)

Check out these entries, answers already filled in.
smiles_notation=Nc1nc2[nH]cnc2c(=S)[nH]1 test_readout=GI50 test_value=1.95
smiles_notation=O=C(Cc1csc2nc(-c3ccc(Br)cc3)cn12)N/N=C/c1ccccc1 test_readout=GI50 test_value=12.9
smiles_notation=COc1cccc(OC)c1/C=N/NC(=O)Cc1csc2nc(-c3ccc(Br)cc3)cn12 test_readout=GI50 test_value=16.2

1 = O=C(Cc1csc2nc(-c3ccc(Br)cc3)cn12)N/N=C/c1ccc(Cl)cc1Cl
2 = O=C(Cc1csc2nc(-c3ccc(Br)cc3)cn12)N/N=C/c1ccc(O)cc1
3 = O=C(Cc1csc2nc(-c3ccc(Br)cc3)cn12)N/N=C/c1ccccc1O
Ask: Put the molecules in ascending order of GI50. Write the labels in rank order as requested.
Result: 3, 2, 1
(3: 3.24 µM, 2: 10.5 µM, 1: 26.3 µM)

###

tested on: OVCAR-3; assay: Growth inhibition of human OVCAR-3 cells after 48 hrs by SRB protein assay; assay type: functional; settings: OVCAR-3, 48 h
Test readout: GI50 (µM)

As a guide, the following entries are already answered.
smiles_notation=O=C(Cc1csc2nc(-c3ccc(Br)cc3)cn12)N/N=C/c1ccccc1O assayed_target=OVCAR-3 test_value=3.24
smiles_notation=Nc1nc2[nH]cnc2c(=S)[nH]1 assayed_target=OVCAR-3 test_value=0.708
smiles_notation=O=C(Cc1csc2nc(-c3ccc(Br)cc3)cn12)N/N=C/c1ccc(O)cc1 assayed_target=OVCAR-3 test_value=24
smiles_notation=O=C(Cc1csc2nc(-c3ccc(Br)cc3)cn12)N/N=C/c1ccccc1 assayed_target=OVCAR-3 test_value=24

P = O=C(Cc1csc2nc(-c3ccc(Br)cc3)cn12)N/N=C/c1ccc(Cl)cc1Cl
Q = COc1cccc(OC)c1/C=N/NC(=O)Cc1csc2nc(-c3ccc(Br)cc3)cn12
Ask: Compare reported GI50 values for P and Q . Which is lower? Reply with the label of the item you choose.
Result: Q
(Q: 15.8 µM, P: 34.7 µM)

###

test system: SNB-19; assay: Growth inhibition of human SNB19 cells after 48 hrs by SRB protein assay; assay type: functional; details: SNB-19, 48 h, read-out: Log TGI (converted)
Test readout: TGI

Record excerpt, results attached:
smiles_notation=O=C(Cc1csc2nc(-c3ccc(Br)cc3)cn12)N/N=C/c1ccccc1O test_value="25.1 µM"
smiles_notation=O=C(Cc1csc2nc(-c3ccc(Br)cc3)cn12)N/N=C/c1ccc(O)cc1 test_value="> 100 µM"
smiles_notation=Nc1nc2[nH]cnc2c(=S)[nH]1 test_value="245 µM"

Ask: # return recorded TGI for entry O=C(Cc1csc2nc(-c3ccc(Br)cc3)cn12)N/N=C/c1ccc(Cl)cc1Cl
Result: > 100 µM

Ask: Name the recorded TGI of the item O=C(Cc1csc2nc(-c3ccc(Br)cc3)cn12)N/N=C/c1ccccc1 in your answer.
Result: > 100 µM

Ask: Name the recorded TGI of the compound listed here: COc1cccc(OC)c1/C=N/NC(=O)Cc1csc2nc(-c3ccc(Br)cc3)cn12
Result: > 100 µM
